# ASSAY_COMMENT: Catalepsy wire mesh, rat, max.
# Format: in vivo, rats
# REPORTED_CONDITIONS: Rattus norvegicus, sc; rats, s.c., strongest effect within first 6 hours; read-out: Catalepsy wire mesh, rat, max. ED50
Let's look at some compounds and their measured ED50.
ASSAY_METRIC: ED50 (mg/kg)

CN(C)CCCN1c2ccccc2Sc2ccc(Cl)cc21 [chlorpromazine, reference compound]
5.6
CSc1ccc2c(c1)C(=C1CCN(C[C@H]3CC[C@H](O)CC3)CC1)c1ccc(F)cc1S2
0.58
O[C@H]1CC[C@@H](CN2CCC(=C3c4ccccc4Sc4ccc(Cl)cc43)CC2)CC1
2.5
O[C@H]1CCC[C@H](CN2CCC(=C3c4ccc(F)cc4Sc4ccc(C(F)(F)F)cc43)CC2)C1 (relative stereo)
0.39
O=C1OCCN1CCN1CCC(=C2c3ccccc3Sc3ccc(Cl)cc32)CC1
6.6
OC1CC(O)(CN2CCC(=C3c4ccc(F)cc4Sc4ccc(C(F)(F)F)cc43)CC2)CC(O)C1O (centres unmarked)
2.7
O=C1OCCN1CCN1CCC(=C2c3ccc(F)cc3Sc3ccc(Cl)cc32)CC1
1
O[C@@H]1CC[C@H](CN2CCC(=C3c4ccc(F)cc4Sc4ccc(C(F)(F)F)cc43)CC2)C[C@H]1O (relative stereo)
0.026
CS(=O)(=O)c1ccc2c(c1)C(=C1CCN(C[C@H]3CC[C@H](O)CC3)CC1)c1ccccc1S2
0.25
O=C1NCCN1CCN1CCC(=C2c3ccc(F)cc3Sc3ccc(C(F)(F)F)cc32)CC1
0.11
CN(C)S(=O)(=O)c1ccc2c(c1)C(=C1CCN(C[C@H]3CC[C@H](O)CC3)CC1)c1ccc(F)cc1S2
0.28
O[C@H]1CC[C@H](CN2CCC(=C3c4ccc(F)cc4Sc4ccc(C(F)(F)F)cc43)CC2)CC1
0.4
OCCN1CCN(CCC=C2c3ccccc3Sc3ccc(C(F)(F)F)cc32)CC1 [flupentixol, reference compound]
0.25

---

# ASSAY_COMMENT: Acute toxicity, LD50 in male rats following peroral administration
# Format: in vivo
# REPORTED_CONDITIONS: rat, in vivo, po; male rats, p.o., one week after administration; read-out: LD50 p.o. in male rats after 1 week
ASSAY_METRIC: LD50 at 168 h (mg/kg)

OCCC1CCN(CC/C=C2/c3ccc(F)cc3Sc3ccc(C(F)(F)F)cc32)CC1 [piflutixol, reference compound]
1.5

---

# ASSAY_COMMENT: Neuroleptic effect: duration and strength (remarks of Table 2)
# Format: in vivo
# REPORTED_CONDITIONS: duration of neuroleptic effect, in words
ASSAY_METRIC: Duration (remarks, words)

Fc1ccc2c(c1)Sc1ccc(C(F)(F)F)cc1C2=C1CCN(CC2CCOCO2)CC1 (stereo not shown)
long acting
O=C1CCC(CN2CCC(=C3c4ccc(F)cc4Sc4ccc(C(F)(F)F)cc43)CC2)CC1
long acting
OCCN1CCN(CCC=C2c3ccccc3Sc3ccc(C(F)(F)F)cc32)CC1 [flupentixol, reference compound]
short acting
O[C@H]1CC[C@@H](CN2CCC(=C3c4ccc(F)cc4Sc4ccc(C(F)(F)F)cc43)CC2)CC1
long acting
O[C@H]1CC[C@H](CN2CCC(=C3c4ccccc4Sc4ccc(Cl)cc43)CC2)CC1
short acting
O[C@@H]1CC[C@H](CN2CCC(=C3c4ccc(F)cc4Sc4ccc(Cl)cc43)CC2)C[C@H]1O (relative stereo)
moderately long acting
O=C(CCCN1CCC(O)(c2ccc(Cl)cc2)CC1)c1ccc(F)cc1 [haloperidol, reference compound]
short acting
O[C@H]1CC[C@H](CN2CCC(=C3c4ccc(F)cc4Sc4ccc(Cl)cc43)CC2)CC1
short acting
OC1COC(CN2CCC(=C3c4ccccc4Sc4ccc(Cl)cc43)CC2)OC1 (stereo not shown)
short acting
CC(=O)N[C@H]1CC[C@H](CN2CCC(=C3c4ccc(F)cc4Sc4ccc(C(F)(F)F)cc43)CC2)CC1
long acting
N[C@H]1CC[C@H](CN2CCC(=C3c4ccccc4Sc4ccc(Cl)cc43)CC2)CC1
short acting
O[C@H]1CCC[C@H](CN2CCC(=C3c4ccc(F)cc4Sc4ccc(C(F)(F)F)cc43)CC2)C1 (relative stereo)
long acting
CN(C)CCCN1c2ccccc2Sc2ccc(Cl)cc21 [chlorpromazine, reference compound]
short acting
CC1(O)CCC(CN2CCC(=C3c4ccc(F)cc4Sc4ccc(C(F)(F)F)cc43)CC2)CC1 (stereo not shown)
long acting
OCCN1CCN(CCCN2c3ccccc3Sc3ccc(C(F)(F)F)cc32)CC1 [fluphenazine, reference compound]
short acting
Cc1ccc2c(c1)C(=C1CCN(C[C@H]3CC[C@H](O)CC3)CC1)c1ccc(F)cc1S2
short acting
O[C@@H]1CC[C@H](CN2CCC(=C3c4ccccc4Sc4ccc(Cl)cc43)CC2)C[C@H]1O (relative stereo)
moderately long acting
OC1CC(O)(CN2CCC(=C3c4ccc(F)cc4Sc4ccc(C(F)(F)F)cc43)CC2)CC(O)C1O (stereo not shown)
relatively short acting
CS(=O)(=O)c1ccc2c(c1)C(=C1CCN(C[C@H]3CC[C@H](O)CC3)CC1)c1ccccc1S2
short acting
CS(=O)(=O)N[C@H]1CC[C@H](CN2CCC(=C3c4ccc(F)cc4Sc4ccc(C(F)(F)F)cc43)CC2)CC1
long acting
CSc1ccc2c(c1)C(=C1CCN(C[C@H]3CC[C@H](O)CC3)CC1)c1ccccc1S2
short acting
O[C@@H]1CC[C@H](CN2CCC(=C3c4ccc(F)cc4Sc4ccc(C(F)(F)F)cc43)CC2)C[C@H]1O (relative stereo)
long acting
Cc1ccc2c(c1)C(=C1CCN(CCN3CCOC3=O)CC1)c1ccc(F)cc1S2
short acting
O=C1NCCN1CCN1CCC(=C2c3ccc(F)cc3Sc3ccc(C(F)(F)F)cc32)CC1
relatively short acting
Cc1ccc2c(c1)Sc1ccc(F)cc1C2=C1CCN(C[C@H]2CC[C@H](O)CC2)CC1
short acting
CSc1ccc2c(c1)C(=C1CCN(C[C@H]3CC[C@H](O)CC3)CC1)c1ccc(F)cc1O2
long acting
N[C@H]1CC[C@H](CN2CCC(=C3c4ccc(F)cc4Sc4ccc(C(F)(F)F)cc43)CC2)CC1
long acting
OCCN1CCN(CCC=C2c3ccccc3Sc3ccc(Cl)cc32)CC1 [clopenthixol, reference compound]
short acting
O=C1OCCN1CCN1CCC(=C2c3ccc(F)cc3Sc3ccc(Cl)cc32)CC1
short acting
O[C@H]1CC[C@@H](CN2CCC(=C3c4ccccc4Sc4ccc(Cl)cc43)CC2)CC1
short acting
COc1ccc2c(c1)C(=C1CCN(C[C@H]3CC[C@H](O)CC3)CC1)c1ccc(F)cc1S2
short acting
